These measurements were taken from PubChem BioAssay (NCATS).

# Assay overview: Primary qHTS for inhibitors of nuclear receptor binding SET domain protein 2 (NSD2) in an RCH-ACV wild type WT cells (2C) (AID 1645877); note: nearly all actives have a fitted effect of over 70% in size
# Test settings: RCH-ACV (leukaemia line) NSD2 WT (2C) viability, CellTiter-Glo, 72 h; series mostly up to 44.9 µM
Inconclusive results are not listed. Calls of active or inactive are those of the source. Calls come from the whole dose curve; as a rule, active = well fitted inhibition curve with a large enough effect; inconclusive = small, poorly fitted or top-dose-only effect; inactive = no such curve, though single readings can be large or run the other way.
Pick from active, inactive when you respond.

Q: Test call, this molecule: `C=C1C[C@]2(O)[C@@]3(C)CCC(=O)C(C)(C)C3=C(O)C(=O)[C@@]2(C)[C@@H]2C(=O)O[C@@](C)(C(=O)OC)C(=O)[C@@]12C`
Result: inactive

Q: Hi team, can someone confirm the assay call for `CC(=O)OC[C@]12C[C@H](OC(C)=O)C(C)=C[C@H]1O[C@@H]1[C@H](O)[C@@H](O)[C@@]2(C)[C@]12CO2` ?
Result: active

Q: Per the records of this test, what outcome belongs to `COC[C@@H]1OC(=O)/C(=C\N(C)CCCN(C)C)C2=C(O)C(=O)C3=C([C@@H](OC(C)=O)C[C@@]4(C)[C@@H]3CC[C@@H]4O)[C@@]21C` ?
Result: active

Q: # lookup: test call for `Oc1ccc2c(c1)C13CCCC[C@H]1[C@@H](C2)N(CC1CCC1)CC3`
Result: active

Q: Field: outcome | Entry: `CC[C@H]1C2CC3[C@@H]4N(C)c5ccccc5[C@]45C[C@@H]([C@H]2[C@H]5O)N3[C@@H]1O`
Result: inactive

Q: // param item: CC(=O)O[C@H]1C[C@@H](C)O[C@H]2O[C@@H]3CC4CC[C@@H]5C(CC[C@]6(C)[C@@H](C7=CC(=O)OC7)CC[C@]56O)[C@@]4(C=O)C[C@H]3O[C@]21O (stereo not given in full) ; yields the recorded call
Result: active

Q: Per the assay record, what outcome was assigned to CC1Oc2cc3c(-c4c(O)cc(O)c5c(O)c6c(cc45)OC(C)C(C)C6=O)c(O)cc(O)c3c(O)c2C(=O)C1C (stereo not given) ?
Result: active

Q: Tell me the assay call for `O=C1N[C@@H](Cc2ccccc2)CN2CCCC[C@@H]12` please.
Result: inactive

Q: Could you please tell me the result logged for C=CC(C)(C)C12C=C(O)C(=O)N3/C(=C\c4cnc[nH]4)C(=O)NC31N(OC)c1ccccc12 (stereo not given) in this assay?
Result: active

Q: Would you mind telling me which call this test gave `CC(=O)OC[C@]12C[C@H](OC(=O)CC(C)C)C(C)=C[C@H]1O[C@@H]1[C@H](O)[C@@H](O)[C@@]2(C)[C@]12CO2` ?
Result: active

Q: Please indicate how the test categorized `CN1C[C@@H]2CN(c3ccc(-c4ccccc4)nn3)C[C@@H]2C1` .
Result: inactive

Q: So what was the verdict on C=C1[C@@H](O)[C@]2(O)OC[C@]34C2[C@]2(C)C(C[C@H]3OC(=O)[C@H](O)[C@@]14O)C(C)=CC(=O)[C@H]2O (stereo not given in full) in this test?
Result: active

Q: Recorded test call requested for `Cc1ccccc1C1=CCN(C)CC1`
Result: inactive

Q: Assay outcome for `C/C=C(/C)C(=O)O[C@H]1[C@@H]2[C@H](C)C(=O)O[C@@H]2C[C@@H](C)[C@@H]2C=CC(=O)[C@]21C` : what was it?
Result: active

Q: Check the results log: what was the call for `C[C@]12CC[C@H](O)C[C@H]1CC[C@@H]1[C@@H]2[C@H](O)C[C@]2(C)[C@@H](c3ccc(=O)oc3)CC[C@]12O` ?
Result: active
